# ASSAY_COMMENT: yeast display, Sf9 membrane polyspecificity reagent, FACS + sequencing; frameworks hold sequencing errors

SEQUENCE_TEXT	polyreactivity (PSR sort gate)
QVQLVESGGGLVQAGRSLRLSCAASGFIFRRYAMGWYRQAPGKEREFVAAISSGDDTDYADSVKGRFTISRDNAKNTVYLQMNSLKPEDTAVYYCAADHRYSVKYYYWGQGTQVTVSS	low polyreactivity
QVQLVESGGGLVQAGGSLRLSCAASGRIFDYYAMGWYRQAPGKERELVAAITSSTGSTYYADSVKGRFTISRDNAKNTVYLQMNSLKPEDTAVYYCAAERTYLDRGFDYWGQGTQVTVSS	low polyreactivity

====

# ASSAY_COMMENT: yeast display, Sf9 membrane polyspecificity reagent, FACS + sequencing; frameworks hold sequencing errors
QUANTITY_MEASURED: polyreactivity (PSR sort gate)

For orientation, consider the following solved cases.
SEQUENCE_TEXT	QUANTITY_MEASURED	VAL
QGQLVESGGGLVQAGGSLRLSCAASGNTFWYYAMGWYRQAPGKEREVVATISSSGGSTSYAHSVKGRFTISRDNAKNTVYLQMNSLKPVDTAVYYCAKPIRYFAAYPLTKGYYYWGQCTQVTVSS	polyreactivity (PSR sort gate)	high polyreactivity
QVQLVESGGGLVQAGGSLRLSCAASGFTFGDYAMYWVRQAPGKGLEWVSSIDSRGGSTYYADSVKGRFTISRDNAKNTVYLQMNSLKPEDTAVYYCAKPGNHRYDYWGQGTQVTVSS	polyreactivity (PSR sort gate)	high polyreactivity
QVQLVESGGVLVQAGGSLRLSCAATGSIINRYAMGWYRQAPRKERELVAAISSTGSTYYADSVKGRFTISRDNAKNTVYLQLNSLKPEDTAVYYCNADATLDWLRVDSYVYWGQGTQVTVSS	polyreactivity (PSR sort gate)	low polyreactivity
QVHLVESGGGLVQAGVSLRLSCAASGSIFEGNGMGWYRQAPGKERELVAAITFRSGSTYYADSVKGRFTNSRDNAKNTVYLQMNSLKPEDTAVYYCAADEYYQVSAYDYWGQGTKVTVSS	polyreactivity (PSR sort gate)	low polyreactivity

Then this sequence:
Problem: Give the reported value of polyreactivity (PSR sort gate) for this record: QVQLVESGGGLVQAGGSLRLSCAASGSTFGYNAMGWYRQAPGKERELVAGIRSSGGSTYYADSVKGRFTISRDNAKNTVYLQMNSLKTEDTAVSYCNTRRRRNEKMYYWGQGTQVTVSS
Solution: high polyreactivity

====

# ASSAY_COMMENT: yeast display, Sf9 membrane polyspecificity reagent, FACS + sequencing; frameworks hold sequencing errors
QUANTITY_MEASURED: polyreactivity (PSR sort gate)

Solved entries (count: 4):
SEQUENCE_TEXT	polyreactivity (PSR sort gate)
QVQLVESGGGLVQAGGSLRLSCAASGSIFRSYDMGMYRQAPGKERELVADITRTGGNTYYADSVKGRFTISRDNAKNTVYLQMNSLKPEDTAVYYCAATYILTVSVFSYVWPYDYWGQGTQVTVSS	high polyreactivity
QVQLVDSGGGLVQEGGSLRLSCAASGSIFLIYAMGWYRQAPGKERELVAAITGGGTTNYADSVKGRFTISRDNAKNTVYLQMNSLKPEDTAVYYCNTLYLVYLYWTSPTPSDLFDYWGQGTQVTVSS	low polyreactivity
QVQLVESGGGLVQAGGSLRLICAASGNTFYGYAMGWSRPAPGKERELVASITLSGDSTYYADSVKGRFTISRDNAKNTVYLQMNSLKPEDTAVYYCAGVYTYPLGYYHYTYDYWGQGTQVTVSS	low polyreactivity
QVQLVESGGGLVQAGGSLRLSCAASGSTFDPNAMGWYRQAPGKERELVAVIDSGDGTTYYADSVKGRFTISRDNAKNTVYLQMNSLKPEDTAVYYCAVDESTSYYDDHEDYWGQGTQVTVSS	low polyreactivity

API: the following record is the query input.
Problem: // Input: QVQLVESGGGLVQAGGSLRLSCAASGFTFVRYAMGWYRQAPGKERELVAAISRRGGSTYYADSVKGRFTISRDNAKNTVYLQMNSLKPEDTAVYYCAARAPYRRVRMNYWGQGTQVTVSS . Output its polyreactivity (PSR sort gate) only.
Solution: high polyreactivity

Attribution: the nanobody polyreactivity screen of Harvey et al. (2022)
